- EXPERIMENT SUMMARY: Chemical stability study: vitamin contents on storage at 20 °C/ambient RH
- Assay type: physicochemical
- EXPERIMENTAL SETUP: Example 1 syrup, batch 1, 20 °C/ambient RH
I'd appreciate it if you could supply Vitamin content after 18 months values for the items below.

Worked examples, 4 compounds total:
Query: // query Vitamin content after 18 months value for entry Cc1cc2nc3c(=O)[nH]c(=O)nc-3n(C[C@H](O)[C@H](O)[C@H](O)CO)c2cc1C
Response: 1.08 mg/10 ml

Query: // query Vitamin content after 18 months value for entry Nc1nc2ncc(CNc3ccc(C(=O)N[C@@H](CCC(=O)O)C(=O)O)cc3)nc2c(=O)[nH]1
Response: 71.4 μg/10 ml

Query: // query Vitamin content after 18 months value for entry Cc1ncc(CO)c(CO)c1O
Response: 1.25 mg/10 ml

Query: // query Vitamin content after 18 months value for entry Cc1ncc(C[n+]2csc(CCO)c2C)c(N)n1
Response: 0.88 mg/10 ml

Proceed to the following item.
Query: // query Vitamin content after 18 months value for entry Cc1c(C)c2c(c(C)c1O)CC[C@@](C)(CCC[C@H](C)CCC[C@H](C)CCCC(C)C)O2
Response: 6.1 mg/10 ml

* * *

I'd appreciate it if you could supply Vitamin content after 18 months values for the items below.
- EXPERIMENT SUMMARY: Chemical stability study: vitamin contents on storage at 20 °C/ambient RH
- Format: physicochemical
- EXPERIMENTAL SETUP: Example 1 syrup, batch 1, 20 °C/ambient RH
Answers are plain numbers, in mg/10 ml.

Query: // query Vitamin content after 18 months value for entry O=C1O[C@H]([C@@H](O)CO)C(O)=C1O
Response: 42.8

Others:
Query: // query Vitamin content after 18 months value for entry NC(=O)c1cccnc1 [Nicotinamide]
Response: 11.6

* * *

- EXPERIMENT SUMMARY: Chemical stability study: vitamin contents on storage at 20 °C/ambient RH
- Format: physicochemical
- EXPERIMENTAL SETUP: Example 4 syrup, batch 1, 20 °C/ambient RH
QUANTITY KIND: Content after 18 months

Provide each entry's Content after 18 months from the list below.
1. [Zn] [Zinc]
2. Cc1c(C)c2c(c(C)c1O)CC[C@@](C)(CCC[C@H](C)CCC[C@H](C)CCCC(C)C)O2 [D-α-tocopherol]
3. CC1=C(/C=C/C(C)=C/C=C/C(C)=C/C=C/C=C(C)/C=C/C=C(C)/C=C/C2=C(C)CCCC2(C)C)C(C)(C)CCC1 [Betacaroten]
4. Cc1ncc(C[n+]2csc(CCO)c2C)c(N)n1 [Thiamine]
5. O=C1O[C@H]([C@@H](O)CO)C(O)=C1O [Ascorbic acid]
6. CC(C)(CO)[C@@H](O)C(=O)NCCC(=O)O [Pantothenic acid]

Response:
1. 8.4 mg/5 ml
2. 12.0 IU/5 ml
3. 2315 IU/5 ml
4. 1.16, 1.16 mg/5 ml
5. 35.7 mg/5 ml
6. 9.2, 9.2 mg/5 ml

* * *

- EXPERIMENT SUMMARY: Chemical stability study: vitamin contents on storage at 20 °C/ambient RH
- Type: physicochemical
- EXPERIMENTAL SETUP: Example 4 syrup, 18 months at 20 °C/ambient RH; '+' = increase
I'd appreciate it if you could supply Degraded values for the items below.
One number for each entry, in %.

Query: // query Degraded value for entry Cc1c(C)c2c(c(C)c1O)CC[C@@](C)(CCC[C@H](C)CCC[C@H](C)CCCC(C)C)O2
Response: 4.0

Query: // query Degraded value for entry CC(C)(CO)[C@@H](O)C(=O)NCCC(=O)O
Response: 11.1

Query: // query Degraded value for entry O=C(O)CCCC[C@@H]1SC[C@@H]2NC(=O)N[C@@H]21
Response: 9.8

Query: // query Degraded value for entry O=C1O[C@H]([C@@H](O)CO)C(O)=C1O
Response: 32.8

Query: // query Degraded value for entry Cc1cc2nc3c(=O)[nH]c(=O)nc-3n(C[C@H](O)[C@H](O)[C@H](O)CO)c2cc1C
Response: 4.0

Provide each entry's Degraded from the list below.
1. [Zn]
2. Nc1nc2ncc(CNc3ccc(C(=O)N[C@@H](CCC(=O)O)C(=O)O)cc3)nc2c(=O)[nH]1

Response:
1. 1.2
2. 7.9

Provide each entry's Degraded from the list below.
1. NC(=O)c1cccnc1 [Nicotinamide]
2. Cc1ncc(C[n+]2csc(CCO)c2C)c(N)n1
3. CC1=C(/C=C/C(C)=C/C=C/C(C)=C/CO)C(C)(C)CCC1

Response:
[4.7, 7.9, 13]
